Tested on: HCT116
GI50 overview

Example cases with answers are listed next.
| compound | GI50 |
| --- | --- |
| O=C(NCc1ccc(C(=O)Nc2nnc(C3CC3)s2)cc1)OCc1nccs1 | 36 µM |
| O=C(Cc1csc(NC(=O)OCc2cc(Br)cs2)n1)NO | 25 µM |
| O=C(Nc1ccc(C(=O)NO)o1)OCc1ccccc1 | > 100 µM |
| O=C(Cc1csc(NC(=O)OCc2cccnc2)n1)NC1CCN(Cc2ccccc2)CC1 | 82 µM |

Problem: Provide GI50, tested on HCT116, for "O=C(Nc1nc(CC(=O)N2CCCCC2)cs1)OCc1cccnc1" .
Solution: > 100 µM

Problem: Supply GI50 measured with HCT116 for CNC(=O)c1ccc(CNC(=O)OCC2COc3ccccc3O2)cc1 (stereo not shown) .
Solution: > 100 µM

Problem: State, for HCT116, measured GI50 of the compound listed here: "O=C(NCc1ccc(C(=O)Nc2nnc(C3CC3)s2)cc1)OCc1c(F)c(F)c(F)c(F)c1F"
Solution: 0.5 µM
